FYI, the data here is from patent US20180016324A1.

What koff was measured for each of the following?
- experimentalSystem: T1, ZIKV (prM80E) with a C-terminal myc-myc-hexahistidine tag (Zika virus, UniProt A0A024B7W1 104-694)
- T1 construct: also called ZIKV (prM80E)-mmH; ZIKV-mmH
- experimentNotes: SPR, mAb captured, 25C

Answered cases to consult:
binder: H4H25619P (antibody, V domains shown) VH: QVQLVESGGGVVQPGRSLRLSCTASGFTFSTYGMHWVRHVPGKGLEWVAIVWYDGSDKSYAASVKGRFTISRDNSKNTLFLQMNSLRAEDTAVYYCARQGTYYYYGMDVWGQGTTVTVSS VL: DIQMTQSPSSLSASVGDRVTITCRSSQTITNYLNWYQQRPGKAPKLLIYAASSLQSGVPSRFSGSGSGTDFTLTISSLQPEDFATYYCQQSYSTPPITFGQGTKLEIKR
measurement: 0.000516 s⁻¹
--
binder: H4H25640P (antibody, V domains shown) VH: QVQLVESGGGVVQPGRSLRLSCAASGFTFSYYGMHWVRQAPGKGLEWVAVILYDGSNKFYSDSVKGRFTISRDNSRNTLYLQMNSLRLEDTAVYYCAKDYGGRFDYWGQGTLVTVSS VL: EIVLTQSPGTLSLSSGERATLSCRASQSVSNKYLAWYQQKPGQVPRLLIYGASNRATGIPDRFSGSGSGTDFTLTINRLEPEDFAVFYCQQYGSTPSTFGQGTKVEIK
measurement: 0.000722 s⁻¹
--
binder: H4H25617P (antibody, V domains shown) VH: EVQLVESGGGLVQPGGSLRLSCSASGFTFTTYAMSWVRQAPGRGLEWVSSISGTGVSTYYADSVKGRFTISRDNSKNALYLQMNSLTAEDTAVYYCAKDSGTYHWGQGTLVTVSS VL: EIVLTQSPATLSLSPGERATLSCRASQSVDSYLAWYQQKPGQAPRLLIYDASNRATGIPARFSGSGSGTDFTLTISSLESEDFAVYYCQQRRNWPQFTFGGGTKVEIK
measurement: 0.00197 s⁻¹

Turning now to a further binder:
Challenge: In one line, give reported koff of the entry H4H25633P (antibody, V domains shown) VH: EVQLVESGGGLVQPGRSLRLSCAASGFTFDDYAIHWVRQAPGKGLEWVSGISWNSGYLGYADSVKGRFTISRDNAKNSLYLQMNSLRAEDTAFYYCAKDVAWGSVRHVFEIWGQGTMVTVSS VL: EIVLTQSPGTLSLSPGERATLSCRASQTITGNQLAWYQQKPGQAPRLLIYFTSSRATGIPDRFSGSGSGTDFSLTISRLEPEDFAVYFCQQFGYSPWTFGQGTKVEIK .
Response given: 0.000802 s⁻¹
